Where do these numbers come from? They come from patent US20100286186A1.

# Tested on: gut motility in the rat
# assay_summary: Charcoal propulsion test of GI motility in the rat
# Type: in vivo
# study_conditions: oral, 10 mg/kg
Item-by-item account of % change from vehicle-treated animals, small intestine
Write the number in % without appending the unit.

Can you look up the measured % change from vehicle-treated animals, small intestine of COc1ccc2c3c1O[C@H]1[C@@H](O)CC[C@H]4[C@@H](C2)N(C)CC[C@@]341.O=C(O)C(O)C(O)C(=O)O [Dihydrocodeine Hydrogen Tartrate, reference compound] for me?
−17.6

Can you look up the measured % change from vehicle-treated animals, small intestine of COc1ccc2c3c1O[C@H]1C(OC(=O)CCC(=O)NC(C(=O)O)C(C)C)=CC[C@@]4(O)[C@@H](C2)N(C)CC[C@]314 (stereo in doubt) for me?
−12.1

Can you look up the measured % change from vehicle-treated animals, small intestine of COc1ccc2c3c1O[C@H]1[C@@H](O)C=C[C@H]4[C@@H](C2)N(C)CC[C@@]341 [Codeine phosphate hemihydrate] for me?
−22.0
